ASSAY TARGET: (NANP)6 (Plasmodium falciparum)
MEASUREMENT PROTOCOL: BLI, target on sensor
pKd: −log10 of the molar value.

| BINDER | pKd |
| --- | --- |
| AB-007036 (antibody, V domains shown) VH: QMQLVESGGGVVQPGRSLRLSCTASGFTFSTYAMHWVRQSPGQGLQWVAVISYDSTNKYYEDSVRGRFTISRDNSKNTLYLQMNSLRAEDTAVYYCARDGYSSSFFDFWGQGTLVTVSS VL: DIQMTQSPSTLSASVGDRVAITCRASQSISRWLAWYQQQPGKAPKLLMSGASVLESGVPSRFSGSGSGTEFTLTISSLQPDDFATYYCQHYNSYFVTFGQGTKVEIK | 9.65 |
| AB-007061 (antibody, V domains shown) VH: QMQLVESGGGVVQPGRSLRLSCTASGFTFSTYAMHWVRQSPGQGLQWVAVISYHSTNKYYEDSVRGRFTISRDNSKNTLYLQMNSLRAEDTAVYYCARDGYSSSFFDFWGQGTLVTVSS VL: DIQMTQSPSTLSASVGDRVAITCRASQSIDRWLAWYQQQPGKAPKLLMSGASVLESGVPSRFSGSGSGTEFTLTISSLQPDDFATYYCQHYNSYFVTFGQGTKVEIK | 9.41 |
| AB-007047 (antibody, V domains shown) VH: QMQLVESGGGVVQPGRSLRLSCTASGFTFSNYAMHWVRQSPGQGLQWVAVISYHSTNKYYEDSVRGRFTISRDNSKNTLYLQMNSLRAEDTAVYYCARDGYSSSFFDFWGQGTLVTVSS VL: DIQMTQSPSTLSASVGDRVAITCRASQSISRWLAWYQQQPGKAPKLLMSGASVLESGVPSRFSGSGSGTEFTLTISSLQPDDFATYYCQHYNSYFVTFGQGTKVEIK | 8.88 |
